Data provenance is patent US8691753B2.

TARGET_OR_TEST_SYSTEM: MMP-12h (Homo sapiens (Human), UniProt P39900)
Sequence (P39900 106-470): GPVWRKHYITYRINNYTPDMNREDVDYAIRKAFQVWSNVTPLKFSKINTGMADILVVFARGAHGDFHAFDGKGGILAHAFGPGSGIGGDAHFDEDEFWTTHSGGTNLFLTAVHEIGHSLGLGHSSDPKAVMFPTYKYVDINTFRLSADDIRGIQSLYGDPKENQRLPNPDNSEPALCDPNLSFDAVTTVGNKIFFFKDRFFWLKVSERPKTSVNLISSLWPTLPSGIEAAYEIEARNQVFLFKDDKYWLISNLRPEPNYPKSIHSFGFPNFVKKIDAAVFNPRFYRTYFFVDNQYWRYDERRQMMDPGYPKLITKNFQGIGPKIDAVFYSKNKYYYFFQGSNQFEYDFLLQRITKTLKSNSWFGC
ASSAY_EXPLANATION: Inhibition constant (Ki) on MMP-12h
Format: biochemical
CONDITION_CONTEXT: read-out: Ki MMP-12h; human MMP-12
pKi: −log10 of the molar value.
MEASURED_PARAMETER: pKi

* NC(=O)[C@H](CCC(=O)O)NC(=O)[C@H](CCC(=O)O)NC(=O)CCc1ccc(-c2cc(Cl)cc(Cl)c2)cc1 [Compound 58] | 7.25
* Cc1ccsc1-c1ccc(CCC(=O)N[C@@H](CCC(=O)O)C(=O)N[C@@H](CCC(=O)O)C(N)=O)cc1 [Compound 107] | 7.08
* NC(=O)[C@H](CCC(=O)O)NC(=O)[C@H](Cc1cnc[nH]1)NC(=O)CCc1ccc(-c2cc(-c3ccccc3)cs2)cc1 [Compound 104] | 7.40
* NC(=O)[C@H](CC(=O)O)NC(=O)[C@H](CCC(=O)O)NC(=O)CCc1cc(-c2ccc(-c3cccc(Cl)c3)cc2)no1 [Compound 8] | 7.96
* NC(=O)[C@H](CC(=O)O)NC(=O)[C@H](CC(=O)O)NC(=O)CCc1cc(-c2ccc(-c3cccc(Cl)c3)cc2)no1 [Compound 10] | 7.23
* NC(=O)[C@H](CC(=O)O)NC(=O)[C@H](CCC(=O)O)NC(=O)CCc1ccc(-c2ccc(-c3ccccc3)cc2)cc1 [Compound 64] | 8.48
* NC(=O)CC[C@H](NC(=O)[C@H](CCC(=O)O)NC(=O)CCc1ccc(-c2cccs2)cc1)C(N)=O [Compound 81] | 7.73
* NC(=O)[C@H](CCC(=O)O)NC(=O)[C@H](CCC(=O)O)NC(=O)CCc1ccc(-c2ccc(-c3ccccc3)s2)cc1 [Compound 92] | 8.59
* O=C(O)CC[C@H](NC(=O)CCc1ccc(-c2cc(-c3ccccc3)cs2)cc1)C(=O)Nc1cccc(CC(=O)O)c1 [Compound 106] | 8.37
* NC(=O)[C@H](CCC(=O)O)NC(=O)[C@H](CCC(=O)O)NC(=O)[C@H](Cc1cc(-c2ccc(-c3cccc(Cl)c3)cc2)no1)CP(=O)(O)c1ccc(Br)cc1 [RXP470, reference compound] | 9.70
* NC(=O)[C@H](CCC(=O)O)NC(=O)[C@H](CCC(=O)O)NC(=O)CCc1ccc(-c2cccs2)cc1 [Compound 80] | 8.07
* NC(=O)[C@H](CCC(=O)O)NC(=O)[C@H](CCC(=O)O)NC(=O)CCc1ccc(-c2cccc(O)c2)cc1 [Compound 54] | 6.75
* NC(=O)[C@H](CCC(=O)O)NC(=O)[C@H](CO)NC(=O)CCc1ccc(-c2ccc(-c3ccccc3)cc2)cc1 [Compound 78] | 6.69
* O=C(O)CC[C@H](NC(=O)CCc1ccc(-c2cccs2)cc1)C(=O)Nc1cccc(CC(=O)O)c1 [Compound 90] | 8.10
* NC(=O)[C@H](CCCC(=O)O)NC(=O)[C@H](CCC(=O)O)NC(=O)CCc1cc(-c2ccc(-c3cccc(Cl)c3)cc2)no1 [Compound 12] | 8.09
* O=C(O)CC[C@H](NC(=O)CCc1ccc(-c2ccccc2)cc1)C(=O)N1CCC[C@@H](CC(=O)O)C1 [Compound 51] | 6.59
* NC(=O)[C@H](CCC(=O)O)NC(=O)[C@H](CCC(=O)O)NC(=O)CCc1ccc(-c2cccc(C(=O)O)c2)cc1 [Compound 56] | 7.04
* NC(=O)[C@H](CCC(=O)O)NC(=O)[C@H](CCC(=O)O)NC(=O)CCc1ccc(COc2ccccc2)cc1 [Compound 29] | 6.33
* NCCCC[C@H](NC(=O)[C@H](CCC(=O)O)NC(=O)CCc1ccc(-c2ccc(-c3ccccc3)cc2)cc1)C(N)=O [Compound 63] | 7.84
